Where do the numbers come from? From PubChem BioAssay (NCI).

Please go through the items and note down their TGI.
System: DU-145 prostate
Experiment: NCI tumour cell line growth inhibition, 48 h
Hi! Could you send only the number? It should be in µM, unit omitted.

Fill in: TGI of C[C@@H](CN1CC(=O)NC(=O)C1)N1CC(=O)NC(=O)C1 is ___
1430

Fill in: TGI of CC(=O)Oc1cc2c(c3ncccc13)OC(C)(C)C2 is ___
28.7

Fill in: TGI of CN1CCN(c2cc(C(=O)Nc3cc4cc(-c5cnn(C)c5)ccc4cn3)ccn2)CC1 is ___
11.4

* * *

System: HCC-2998 colon
Test: NCI tumour cell line growth inhibition, 48 h
Property: GI50

Fill in: GI50 of COC(=O)c1c(O)c([N+](=O)[O-])cc2c1c1c(n2Cc2ccccc2)C(=O)c2ccccc2C1=O is ___
11.2 µM

Fill in: GI50 of CN1CCN(c2ccc(Nc3nc(N)c(C(=O)c4ccc5c(c4)OCCO5)s3)cc2)CC1 is ___
9.67 µM

Fill in: GI50 of CS(=O)(=O)CCNCc1ccc(-c2ccc3ncnc(Nc4ccc(OCc5cccc(F)c5)c(C(F)(F)F)c4)c3c2)o1 is ___
4.4 µM

Fill in: GI50 of COc1cc(Nc2ncc(F)c(Nc3ccc4c(n3)NC(=O)C(C)(C)O4)n2)cc(OC)c1OC is ___
> 100 µM

Fill in: GI50 of CC(=O)[O-].[Mn+3].[O-]c1ccccc1C=NCCN=Cc1ccccc1[O-] is ___
> 100 µM

Fill in: GI50 of Nc1nc2cc3ccc(C4CC(O)C(CO)O4)cc3cc2c(=O)[nH]1 (centres undefined) is ___
> 100 µM

Fill in: GI50 of Cc1nccc2c3ccc(OCc4cn(-c5ccc(Cl)cc5)nn4)cc3n(CCCc3ccccc3)c12 is ___
6.13 µM

Fill in: GI50 of CCN(CC)CCCC(C)Nc1nc(C)cc(Nc2ccc3nc(C)cc(N)c3c2)n1 (centres undefined) is ___
26.9 µM

Fill in: GI50 of COC1=CC(=O)C(OC)=C(OC)C1=O is ___
> 100 µM

* * *

Please go through the items and note down their TGI.
Tested on: NCI-H226 lung
Experiment: NCI tumour cell line growth inhibition, 48 h

Fill in: TGI of Oc1ccccc1C=Nc1ccc(-c2nc3ccccc3[nH]2)cc1 is ___
> 100 µM

Fill in: TGI of COc1ccc(C(=O)/C=C/c2cc3c(c(OC)c2)OCC(=O)N3)cc1 is ___
> 100 µM

Fill in: TGI of CC(=O)c1ccc2c(ccc(=O)n2C)c1 is ___
> 100 µM

Fill in: TGI of COC(=O)c1c(O)c([N+](=O)[O-])cc2c1c1c(n2Cc2ccccc2)C(=O)c2ccccc2C1=O is ___
62.9 µM

Fill in: TGI of C=C1C(=O)OC2/C=C(/C)C3CC(O)C(C)(CC(OC(=O)/C(C)=C/C)C12)O3 (stereo unspecified) is ___
35.3 µM

Fill in: TGI of COC(=O)CCC(=O)Nc1cc(Cl)ccc1Cl is ___
> 100 µM

Fill in: TGI of Cc1nc2c(nc1C)-c1c(c3c(n1C)C(=O)CCC3)C(=O)C2=O is ___
2.77 µM

Fill in: TGI of C[C@@H](CN1CC(=O)NC(=O)C1)N1CC(=O)NC(=O)C1 is ___
485 µM

Fill in: TGI of CCn1cc(-c2ccnc3[nH]ccc23)c(-c2cccc(NC(=O)Nc3ccc(OCc4ccccc4)cc3)c2)n1 is ___
> 25 µM

Fill in: TGI of CCOC(=O)C(=O)Nc1ccc(Cl)cc1C is ___
> 100 µM

Fill in: TGI of COc1cc(NC(C)=O)ccc1C(=O)NN1C(=O)C(Cl)C1c1ccco1 (stereo unspecified) is ___
> 100 µM
